Every entry's value here was drawn from patent US20030068675.

# system: ZFP SBS#426 (synthetic)
# Sequence (chain, as listed by the source): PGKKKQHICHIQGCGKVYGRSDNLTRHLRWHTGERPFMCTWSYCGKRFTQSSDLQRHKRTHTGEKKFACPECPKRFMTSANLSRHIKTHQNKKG
# test-method-notes: EMSA
# reported-conditions: tags: MBP fusion

binder: GATGCTGAG (dsDNA) DNA 1: GATGCTGAG DNA 2: CTCAGCATC
Kd [nM]: 5.5
